# Target: human NCX1 (Homo sapiens, UniProt P32418)
# Construct: expressed in transfected cells
# Assay text: NCX1 inhibition, reverse mode (Ca2+ influx into cells), FLIPR Fluo-4 assay
# Assay type: cell-based
# Protocol conditions: inhibition of NCX1 in reverse mode (Ca2+ influx into cells); read-out: NCX1rv IC50
Where a name gives a salt, the structure may show the parent alone.

| Molecule | IC50 (µM) |
| --- | --- |
| CCCNC(=O)c1sc(Oc2ccc3c(c2)CCC(c2ccccc2C)O3)nc1C (stereo not shown) [compound 332] | 10 |
| CCCCNC(=O)c1cnc(Oc2ccc3c(c2)CCC(c2ccccc2)O3)s1 (stereo not shown) [compound 317] | 0.1 |
| O=C(NCc1cnc(Oc2ccc3c(c2)CCC(c2ccccc2)O3)s1)c1ccnc(N2CCOCC2)c1 (stereo not shown) [compound 83] | 2.1 |
| c1ccc(C2CCc3cc(Oc4ncc(CNCc5ccncc5)s4)ccc3O2)cc1 (stereo not shown) [Example 134] | 0.2 |
| O=C(NCc1ccncc1)c1cnc(Oc2ccc3c(c2)CC[C@@H](c2ccccc2)O3)s1 [compound 36] | 0.1 |
| Cc1cccc(C)c1C1CCc2cc(Oc3ncc(C(=O)N(C)C)s3)ccc2O1 (stereo not shown) [compound 338] | 8.7 |
| O=C(NCc1ccnc(Cl)c1)c1cnc(Oc2ccc3c(c2)CCC(c2ccccc2)O3)s1 (stereo not shown) [Example 39] | 0.3 |
| Cc1cccc(C)c1C1CCc2cc(Oc3ncc(C(=O)NCCO)s3)ccc2O1 (stereo not shown) [compound 337] | 7.6 |
| COc1c(F)cccc1C1CCc2cc(Oc3ncc(C(=O)NCc4ccno4)s3)ccc2O1 (stereo not shown) [compound 366] | 0.18 |
| COc1cccc(C2CCc3cc(Oc4ncc(C(=O)NCCO)s4)ccc3O2)c1F (stereo not shown) [compound 360] | 1.8 |
| CC(C)C[C@H](NC(=O)c1cnc(Oc2ccc3c(c2)CC[C@@H](c2ccccc2)O3)s1)[C@@H](O)C(=O)O [compound 236] | 1.6 |
| Cc1c(CNCc2cnc(Oc3ccc4c(c3)CCC(c3ccccc3)O4)s2)cnn1C (stereo not shown) [compound 138] | 0.3 |
| Cc1c(S(=O)(=O)NCc2cnc(Oc3ccc4c(c3)CCC(c3ccccc3)O4)s2)cnn1C(C)C (stereo not shown) [compound 130] | 0.7 |
| CC(NCc1cnc(Oc2ccc3c(c2)CCC(c2ccccc2)O3)s1)C(C)(C)C (stereo not shown) [compound 105] | 0.8 |
| CN1CCN(Cc2cnc(Oc3ccc4c(c3)CCC(c3ccccc3)O4)s2)CC1=O (stereo not shown) [compound 102] | 0.4 |
| O=C(NCc1ccncc1)c1sc(Oc2ccc3c(c2)CCC(c2ccccc2)O3)nc1C(F)(F)F (stereo not shown) [compound 30, hydrochloride] | 0.3 |

---

# Target: human NCX1 (Homo sapiens, UniProt P32418)
# Construct: expressed in transfected cells
# Assay text: NCX1 inhibition, forward mode (Ca2+ efflux out of cells), FLIPR calcium assay
# Format: cell-based
# Protocol conditions: CHO cells stably expressing human NCX1, read-out: NCX1fw IC50
# Description: The sodium/calcium exchanger NCX1 can transport calcium ions and sodium ions through the cell membrane. The transport is an exchange of Ca^2+ and Na^+ in two directions depending on membrane potential and ion gradients. […] The effect of the compounds of the invention on NCX1 was determined in CHO cells stably expressing human NCX1 (gene symbol SLC8A1; cf. WO 2009/115238). […]
pIC50: −log10 of the molar value. Structures can show the parent of a compound that is named as a salt.

| Molecule | pIC50 |
| --- | --- |
| Cc1ccc(F)cc1C1CCc2cc(Oc3ncc(C(=O)N(C)C)s3)ccc2O1 (centres unmarked) [Example 348] | 6.10 |
| O=C(NC(CCO)C1CC1)c1cnc(Oc2ccc3c(c2)CC[C@@H](c2ccccc2)O3)s1 (some centres unmarked) [Example 206] | 5.80 |
| O=C(NCc1ccno1)c1cnc(Oc2ccc3c(c2)CCC(c2cccnc2)O3)s1 (centres unmarked) [Example 58, hydrochloride] | 5.08 |
| CCCNC(=O)c1cnc(Oc2ccc3c(c2)CCC(c2ccccc2)O3)s1 (centres unmarked) [Example 321] | 5.82 |
| O=C(c1cnc(Oc2ccc3c(c2)CC[C@@H](c2ccccc2)O3)s1)N1CCOCC1 [Example 214] | 5.35 |
| Cc1c(CNC(=O)c2cnc(Oc3ccc4c(c3)CCC(c3ccccc3)O4)s2)cnn1C (centres unmarked) [Example 14] | 5.66 |
| O=C(NCc1ccncc1)c1sc(Oc2ccc3c(c2)CCC(c2ccccc2)O3)nc1Cl (centres unmarked) [Example 177, hydrochloride] | 6.10 |
| O=C(NCc1nnc2n1CCC2)c1cnc(Oc2ccc3c(c2)CCC(c2cccc(F)c2)O3)s1 (centres unmarked) [Example 20, hydrochloride] | 5.92 |
